These data points were gathered from ChEMBL document CHEMBL4342528.

# TGT: Protein arginine N-methyltransferase 6 (Homo sapiens)
# Sequence (Q96LA8 whole entry): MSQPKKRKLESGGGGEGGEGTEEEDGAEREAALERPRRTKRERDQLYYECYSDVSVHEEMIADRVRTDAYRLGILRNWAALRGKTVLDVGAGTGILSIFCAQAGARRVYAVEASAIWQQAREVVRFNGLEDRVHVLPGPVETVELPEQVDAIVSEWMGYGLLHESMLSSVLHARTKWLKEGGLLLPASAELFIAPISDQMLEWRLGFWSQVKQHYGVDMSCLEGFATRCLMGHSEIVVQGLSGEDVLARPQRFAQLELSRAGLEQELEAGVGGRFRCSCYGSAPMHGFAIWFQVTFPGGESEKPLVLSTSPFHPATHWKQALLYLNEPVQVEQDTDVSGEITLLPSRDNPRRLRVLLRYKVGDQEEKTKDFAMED
EXPERIMENTAL_READOUT: Ki (nM)
Reply with just the number (in nM).

Give the observed Ki of C=CC(=O)Nc1cccc(-c2c[nH]cc2CN(C)CCN)c1 for Protein arginine N-methyltransferase 6 (Homo sapiens). 16

---

# TGT: UniProt:Q99873
# Sequence (Q99873 whole entry): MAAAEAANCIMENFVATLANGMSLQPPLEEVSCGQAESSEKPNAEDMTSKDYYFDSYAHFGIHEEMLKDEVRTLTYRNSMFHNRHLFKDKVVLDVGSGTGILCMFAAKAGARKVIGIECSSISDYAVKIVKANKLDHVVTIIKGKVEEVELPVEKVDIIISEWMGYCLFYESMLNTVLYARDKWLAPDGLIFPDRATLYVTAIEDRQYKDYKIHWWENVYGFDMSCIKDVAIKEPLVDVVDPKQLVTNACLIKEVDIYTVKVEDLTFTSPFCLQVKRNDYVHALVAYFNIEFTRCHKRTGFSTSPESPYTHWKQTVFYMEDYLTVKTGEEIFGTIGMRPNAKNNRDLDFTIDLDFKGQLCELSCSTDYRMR
# TEST_PROTOCOL: Inhibition of PRMT1 in human MCF7 cells assessed as reduction in H4R3me2a levels incubated for 2 days by fluorescence based assay
# Type: cell-based
Below, each entry is listed with its recorded IC50.
Reply with just the number (in µM).

compound_structure=C=CC(=O)Nc1cccc(-c2c[nH]cc2CN(C)CCN)c1 tgt=UniProt:Q99873 measured_result=5.6

Could you now look at the following compound, please?
Give the observed IC50 of CCC(=O)Nc1cccc(-c2c[nH]cc2CN(C)CCN)c1 for UniProt:Q99873. 6.7

---

# TGT: Protein arginine N-methyltransferase 6 (Homo sapiens)
# TEST_PROTOCOL: Inhibition of Flag-tagged PRMT6 (unknown origin) expressed in HEK293 cells incubated for 20 hrs assessed as reduction in H3R2me2a levels
# Type: cell-based
EXPERIMENTAL_READOUT: pIC50
The scale used: pIC50 is minus the common logarithm of the concentration in molar units.

For the compound C=CC(=O)Nc1cccc(-c2c[nH]cc2CN(C)CCN)c1 , give its measured pIC50 value. 5.89

---

Below, each entry is listed with its recorded IC50.
# TGT: Protein arginine N-methyltransferase 3 (Homo sapiens)
# Sequence (O60678 whole entry): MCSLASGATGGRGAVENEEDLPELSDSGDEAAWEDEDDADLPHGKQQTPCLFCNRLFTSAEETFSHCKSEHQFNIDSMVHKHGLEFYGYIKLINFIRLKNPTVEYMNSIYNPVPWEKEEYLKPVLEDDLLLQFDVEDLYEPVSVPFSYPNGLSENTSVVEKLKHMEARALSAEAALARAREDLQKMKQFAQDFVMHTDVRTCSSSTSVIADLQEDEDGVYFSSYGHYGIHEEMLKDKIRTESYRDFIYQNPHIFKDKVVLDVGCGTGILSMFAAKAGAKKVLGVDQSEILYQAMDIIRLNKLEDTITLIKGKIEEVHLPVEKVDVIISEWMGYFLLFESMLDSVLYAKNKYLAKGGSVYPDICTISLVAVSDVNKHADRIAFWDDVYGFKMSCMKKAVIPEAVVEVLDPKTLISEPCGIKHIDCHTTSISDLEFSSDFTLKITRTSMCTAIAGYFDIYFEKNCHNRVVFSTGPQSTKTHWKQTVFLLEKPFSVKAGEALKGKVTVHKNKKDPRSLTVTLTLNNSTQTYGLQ
Reply with just the number (in µM).

compound_structure=C=CC(=O)Nc1cccc(-c2c[nH]cc2CN(C)CCN)c1 measured_result=3

For the compound CCC(=O)Nc1cccc(-c2c[nH]cc2CN(C)CCN)c1 , give its measured IC50 value. 15

---

# TGT: Histone-arginine methyltransferase CARM1 (Homo sapiens, UniProt Q86X55)
# Sequence (Q86X55 whole entry): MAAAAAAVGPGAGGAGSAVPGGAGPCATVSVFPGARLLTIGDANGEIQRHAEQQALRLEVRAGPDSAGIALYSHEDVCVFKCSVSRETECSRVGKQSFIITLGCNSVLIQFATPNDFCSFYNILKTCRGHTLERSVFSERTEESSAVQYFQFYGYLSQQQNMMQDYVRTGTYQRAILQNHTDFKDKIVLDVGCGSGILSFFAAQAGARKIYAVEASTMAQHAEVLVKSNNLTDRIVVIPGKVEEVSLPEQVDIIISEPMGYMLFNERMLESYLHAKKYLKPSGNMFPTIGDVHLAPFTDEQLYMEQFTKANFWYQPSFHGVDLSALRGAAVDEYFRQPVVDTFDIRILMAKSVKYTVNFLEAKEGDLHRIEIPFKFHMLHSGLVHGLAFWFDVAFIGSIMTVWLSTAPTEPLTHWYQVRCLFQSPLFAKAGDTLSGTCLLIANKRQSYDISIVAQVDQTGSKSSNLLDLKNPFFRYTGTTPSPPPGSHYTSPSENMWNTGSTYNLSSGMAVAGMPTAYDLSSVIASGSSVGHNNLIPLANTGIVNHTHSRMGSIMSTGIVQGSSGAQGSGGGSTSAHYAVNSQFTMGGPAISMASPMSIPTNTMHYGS
# TEST_PROTOCOL: Inhibition of human PRMT4 using [3H]SAM as donor and [3H]methylated biotin-labeled peptide as substrate by scintillation proximity assay
Below, each entry is listed with its recorded IC50.

Example entries and their recorded answers appear below.
compound_structure=C=CC(=O)Nc1cccc(-c2c[nH]cc2CN(C)CCO)c1 experimental_readout=IC50 measured_result="51000 nM"
compound_structure=C=CC(=O)Nc1cccc(-c2c[nH]cc2CN(C)CCN)c1 experimental_readout=IC50 measured_result="480 nM"

Could you now look at the following molecule, please?
For the molecule CCC(=O)Nc1cccc(-c2c[nH]cc2CN(C)CCN)c1 , give its measured IC50 value. 2000 nM
